target: PTRGER4 (EP4) (Homo sapiens (Human)); experiment: hEP4 b-arrestin assay (PathHunter HEK 293 PTGER4 b-arrestin cells); format: cell-based; details: hEP4 b-arrestin assay (values without asterisk)
Sequence (P35408 whole entry, looked up): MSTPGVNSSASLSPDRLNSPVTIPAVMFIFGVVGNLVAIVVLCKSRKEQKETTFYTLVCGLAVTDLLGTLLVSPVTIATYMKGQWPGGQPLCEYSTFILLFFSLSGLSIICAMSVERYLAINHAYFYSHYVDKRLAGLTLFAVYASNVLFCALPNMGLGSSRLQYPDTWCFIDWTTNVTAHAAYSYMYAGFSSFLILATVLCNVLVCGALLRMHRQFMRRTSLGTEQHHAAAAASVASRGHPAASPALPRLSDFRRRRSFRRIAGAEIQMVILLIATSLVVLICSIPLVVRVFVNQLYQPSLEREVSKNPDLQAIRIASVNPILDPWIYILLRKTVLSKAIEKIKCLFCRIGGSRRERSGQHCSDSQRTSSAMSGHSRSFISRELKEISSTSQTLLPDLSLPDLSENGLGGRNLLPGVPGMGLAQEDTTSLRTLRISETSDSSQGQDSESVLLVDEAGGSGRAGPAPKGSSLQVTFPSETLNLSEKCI
Lab note: class by IC50, see low: < 10 nM; mid: ≥ 10 nM and < 70 nM; high: ≥ 70 nM

| Compound | Class assignment |
| --- | --- |
| COC(=O)Nc1ccc(-c2cc(NCCn3c(C)cc4c(OC)ccc(F)c43)ncn2)cc1 | high |
| CCOc1cc(-c2cc(NCCn3c(C)cc4c(OC)ccc(F)c43)ncn2)sc1C(C)O (stereo not shown) | high |
| COc1ccc(F)c2c1cc(C#N)n2CCNc1cc(-c2cc(C(=O)O)cs2)ncn1 | high |
| COc1ccc(F)c2c1cc(C)n2CCNc1cc(-c2nc(OC(C)C)c(C(=O)O)s2)ncn1 | mid |
| COc1ccc(F)c2c1cc(C#N)n2CCNc1cc(-c2ccc(-c3nc(C)[nH]c3C)cc2)ncn1 | low |
| CCOc1cc(-c2cc(NCCn3c(C#N)cc4c(OC)cc(F)c(F)c43)ncn2)sc1C(=O)O | low |
| COc1ccc(F)c2c1cc(C#N)n2CCNc1cc(-c2ccc3c(=O)[nH][nH]c(=O)c3c2)ncn1 | high |
| COc1ccc(F)c2c1cc(C#N)n2CCNc1cc(-c2ccc3nccn3c2)ncn1 | mid |
| CCOc1cc(-c2cc(NCCn3c(C)cc4c(OC)ccc(F)c43)ncn2)sc1/C=C/C(=O)O | low |
| COc1ccc(F)c2c1cc(C#N)n2CCNc1cc(-c2c[nH]c3ncccc23)ncn1 | mid |
| N#Cc1cc2c(Cl)cc(F)c(F)c2n1CCNc1cc(-c2cc(C(F)(F)F)c(C(=O)O)s2)ncn1 | mid |
| COc1ccc(F)c2c1cc(C#N)n2CCNc1cc(-c2ccnc(OC(F)F)c2)ncn1 | high |
| COc1ccc(F)c2c1cc(C#N)n2CCNc1cc(-c2cccc(CCC(=O)O)c2)ncn1 | high |
| CCOC(=O)C#Cc1ccc(-c2cc(NCCn3c(C#N)cc4c(OC)ccc(F)c43)ncn2)cc1OC | mid |
| CCOc1cc(-c2cc(NCCn3c(C#N)cc4cccc(F)c43)ncn2)sc1C(=O)O | mid |
| COc1ccc(F)c2c1cc(C#N)n2CCNc1cc(-c2ccc(-c3cnc[nH]3)cc2)ncn1 | mid |
| CCOc1cc(-c2cc(NCCn3c(C)cc4c(C)c(F)cc(Cl)c43)ncn2)sc1C(=O)O | mid |
| CCOc1cc(-c2cc(NCCn3c(C)cc4c(OC)ccc(F)c43)ncn2)sc1CCC(=O)O | mid |
| N#Cc1cc2c(Cl)cc(Cl)cc2n1CCNc1cc(-c2cc(F)c(C(=O)O)s2)ncn1 | high |
| CCOc1cc(-c2cc(NCCn3c(C#N)cc4c(OC)ccc(F)c43)ncn2)ccc1OCCC(=O)O | low |
| CCOc1cc(-c2cc(NCCn3c(C#N)cc4c(OC)ccc(F)c43)ncn2)ccc1CCC(=O)O | high |
| N#Cc1cc2c(Cl)cccc2n1CCNc1cc(-c2cc(Cl)c(C(=O)O)s2)ncn1 | mid |
| CCOc1cc(-c2cc(NCCn3c(C#N)cc4c(OC)ccc(F)c43)ncn2)sc1C(=O)OCC(=O)O | low |
| CCOc1cc(-c2cc(NCCn3c(C)cc4c(OC)ccc(F)c43)ncn2)ccc1-c1nc(C)c(C)o1 | high |
| COc1ccc(F)c2c1cc(C#N)n2CCNc1cc(-c2ccc(C3(OC)COC3)s2)ncn1 | high |
| COc1cccc2c1cc(C#N)n2CCNc1cc(-c2cc(F)c(C(=O)O)s2)ncn1 | low |
| COc1cc(Cl)cc2c1cc(C)n2CCNc1cc(-c2cc(OC(C)C)c(C(=O)O)s2)ncn1 | low |
| CCOc1cc(-c2cc(NCCn3c(C#N)cc4cccc(F)c43)ncn2)ccc1NCC(=O)O | mid |
| CCOc1cc(-c2cc(NCCn3c(C#N)cc4c(OC)ccc(F)c43)ncn2)ccc1-c1cnn[nH]1 | low |
